- target: Matrix-associated proTGFβ1 complexes (hLTBP1-proTGFβ1 and hLTBP3-proTGFβ1)
- experimentNotes: MSD-SET, hIgG4
measuredAttribute: ECM AVRG (average KD, hLTBP1 and hLTBP3 complexes)

- binder: "Ab4 (antibody, IgG4, V domains shown) VH: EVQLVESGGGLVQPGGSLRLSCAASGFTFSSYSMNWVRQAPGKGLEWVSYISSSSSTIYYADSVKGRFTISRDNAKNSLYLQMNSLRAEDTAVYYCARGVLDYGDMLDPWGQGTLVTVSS VL: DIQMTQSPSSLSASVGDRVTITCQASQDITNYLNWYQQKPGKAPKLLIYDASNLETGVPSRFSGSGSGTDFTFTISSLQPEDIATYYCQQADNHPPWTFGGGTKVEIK"
  experimentalValue: "5.05 nM"
- binder: "Ab33 (antibody, IgG4, V domains shown) VH: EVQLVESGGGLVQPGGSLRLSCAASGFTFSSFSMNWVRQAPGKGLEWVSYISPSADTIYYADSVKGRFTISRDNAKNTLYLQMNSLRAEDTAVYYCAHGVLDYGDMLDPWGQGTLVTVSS VL: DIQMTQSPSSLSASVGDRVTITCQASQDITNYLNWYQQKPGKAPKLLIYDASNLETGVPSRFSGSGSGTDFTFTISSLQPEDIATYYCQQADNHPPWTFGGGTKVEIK"
  experimentalValue: "0.009 nM"
- binder: "Ab32 (antibody, IgG4, V domains shown) VH: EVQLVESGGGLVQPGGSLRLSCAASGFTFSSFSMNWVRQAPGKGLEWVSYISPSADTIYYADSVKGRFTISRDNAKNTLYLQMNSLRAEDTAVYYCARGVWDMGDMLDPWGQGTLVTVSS VL: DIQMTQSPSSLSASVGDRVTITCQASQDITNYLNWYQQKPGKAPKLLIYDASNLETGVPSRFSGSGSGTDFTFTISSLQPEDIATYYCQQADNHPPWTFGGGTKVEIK"
  experimentalValue: "0.032 nM"

Origin of values: patent US20250282857A1
